Target: Kappa-type opioid receptor (Homo sapiens, UniProt P41145)
Sequence (P41145 whole entry): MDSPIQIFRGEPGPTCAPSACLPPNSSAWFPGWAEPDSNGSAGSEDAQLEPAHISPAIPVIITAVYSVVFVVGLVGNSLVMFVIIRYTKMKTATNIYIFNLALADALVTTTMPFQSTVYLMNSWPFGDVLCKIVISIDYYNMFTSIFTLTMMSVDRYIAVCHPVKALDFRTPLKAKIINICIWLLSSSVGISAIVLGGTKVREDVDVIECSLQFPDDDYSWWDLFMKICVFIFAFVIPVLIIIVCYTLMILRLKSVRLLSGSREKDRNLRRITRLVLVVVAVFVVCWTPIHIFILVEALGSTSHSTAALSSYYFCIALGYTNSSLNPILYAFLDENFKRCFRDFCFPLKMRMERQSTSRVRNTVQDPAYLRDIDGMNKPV
Assay: Agonist activity at human kappa opioid receptor by [35S]GTP-gamma-S binding assay
Measured metric: Ki

Smiles repr | Measured metric | Result
CN(C(=O)CCC(=O)Nc1ccccc1)[C@H](CN1CC[C@H](O)C1)c1ccccc1 | Ki | 0.006 µM
CN(C(=O)CC(=O)NCc1ccccc1)[C@H](CN1CC[C@H](O)C1)c1ccccc1 | Ki | 0.015 µM
CN(C(=O)CC(=O)Nc1cccnc1)[C@H](CN1CC[C@H](O)C1)c1ccccc1 | Ki | 0.0013 µM
CN(C(=O)NCC(=O)Nc1ccccc1)[C@H](CN1CC[C@H](O)C1)c1ccccc1 | Ki | 0.0065 µM
CN(C(=O)CCC(=O)Nc1nccs1)[C@H](CN1CC[C@H](O)C1)c1ccccc1 | Ki | 0.023 µM
CN(C(=O)CC(=O)Nc1ccc(NS(C)(=O)=O)cc1)[C@H](CN1CC[C@H](O)C1)c1ccccc1 | Ki | 0.029 µM
CN(C(=O)CCC(=O)Nc1cccnc1)[C@H](CN1CC[C@H](O)C1)c1ccccc1 | Ki | 0.28 µM
